- System: Setaria viridis
- protocolNotes: Pre-emergence test, weed control
- Format: in vivo
- conditionDetails: 0.030 kg/ha, 3 weeks after treatment, rating 0-100 (100=death), Table 3
outcomeMeasure: SETVI weed control rating
Numbers only.

Solved cases below.
1. Cc1cnc(-c2ccc(C(F)(F)F)cc2)nc1Oc1ccnc(Cl)c1 [REF-4] | 65
2. Cc1nc(-c2ccc(C(F)(F)F)cc2)nc(Oc2ccnc(Cl)c2)c1C [REF-5] | 20
3. FC(F)(F)c1ccc(-c2nccc(Oc3ccnc(Cl)c3)n2)cc1 [CTP] | 98
4. CSc1cc(Oc2ccnc(Cl)c2)nc(-c2ccc(C(F)(F)F)cc2)n1 [REF-7] | 35
5. COc1cnc(-c2ccc(C(F)(F)F)cc2)nc1Oc1ccnc(Cl)c1 [REF-8] | 60

Name the recorded SETVI weed control rating of the molecule listed here: Cc1cc(Oc2ccnc(Cl)c2)nc(-c2ccc(C(F)(F)F)cc2)n1 [REF-6] 100

Just for reference, patent US7008905B2 is where these values come from.
